Several reports have described Ki for Nischarin (Rattus norvegicus, UniProt Q4G017); a selection of those results is presented here.

| molecule | Ki |
| --- | --- |
| N[C@@H](CS)C(=O)O | > 10 µM |
| CSCC[C@@H](N)C(=O)O | > 10 µM |
| Clc1cccc(Cl)c1N=C1NCCN1 | 1 µM |
| N[C@H](CS(=O)(=O)O)C(=O)O | > 10 µM |
| NC1=NC2(CCc3ccccc3C2)CO1 (stereo unspecified) | 0.0794 µM |
| NC(CS(=O)O)C(=O)O (stereo unspecified) | > 10 µM |
| CN1CCN(C2=c3ccccc3=Nc3ccc(Cl)cc3N2)CC1 | > 10 µM |
| CN/C([CH-][N+](=O)[O-])=[NH+]\CCSCc1ccc(CN(C)C)o1 | > 10 µM |
| COc1nc(C)nc(Cl)c1N=C1NCCN1 | > 10 µM |
| O=C(CCCN1CCC(O)(c2ccc(Cl)cc2)CC1)c1ccc(F)cc1 | 0.5 µM |
| CCN1CCCC1CNC(=O)c1cc(S(=O)(=O)CC)c(N)cc1OC (stereo unspecified) | > 10 µM |
